B1: library; a variant is named by its letters at N, in order (parent)
chain: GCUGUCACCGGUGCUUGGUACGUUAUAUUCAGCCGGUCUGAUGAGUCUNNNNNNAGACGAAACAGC

Variants of: B1
Assay Summary: FACS-Seq fitted mean relative fluorescence mCherry/BFP with ligand (log10 relative fluorescence); HEK293T overexpressing SLC46A1; ligand concentration (+) FACS-Seq: 6 mM; higher = higher reporter protein expression
Setup Conditions: with (6R,S)-folinic acid; ligand present: yes
Class met: FACS-Seq fitted mean (log10) at least 0.5. Class not met: FACS-Seq fitted mean (log10) below 0.5.

(Q) Record UCAGGA ; criterion: FACS-Seq fitted mean (log10) no lower than 0.5. Met?
(A) not met

(Q) Would you say UCGAGU shows FACS-Seq fitted mean (log10) at minimum 0.5?
(A) not met

(Q) # check: FACS-Seq fitted mean (log10) of GCGAUG is greater than or equal to 0.5
(A) not met

(Q) Does the variant GCACAC have recorded FACS-Seq fitted mean (log10) that is 0.5 or more?
(A) not met

(Q) FACS-Seq fitted mean (log10) >= 0.5 for CGCAAC ?
(A) not met

(Q) Does the reported FACS-Seq fitted mean (log10) for UACCUC fall at or above the 0.5 mark?
(A) met

(Q) Could you please find out whether CUUGGC has FACS-Seq fitted mean (log10) that meets 0.5 or exceeds it?
(A) met

(Q) Check this variant for FACS-Seq fitted mean (log10) at or above 0.5: ACGUAG
(A) met

(Q) Could you tell me if the measured FACS-Seq fitted mean (log10) of AAGACA reaches 0.5 or more?
(A) met

(Q) Confirm if FACS-Seq fitted mean (log10) reported for the variant CGCAUA is 0.5 or above.
(A) not met

(Q) Assess whether reported FACS-Seq fitted mean (log10) for GUUGAG sits at 0.5 or higher.
(A) met

(Q) Please check the record GAAUGG and state if its FACS-Seq fitted mean (log10) is at or above 0.5.
(A) not met

(Q) Is FACS-Seq fitted mean (log10) for AUGAGC at or above 0.5?
(A) not met

(Q) Can AUACUC be said to have FACS-Seq fitted mean (log10) at or above 0.5?
(A) not met

(Q) Decide: is the reported value of FACS-Seq fitted mean (log10) for CAUAAU equal to or greater than 0.5?
(A) not met

(Q) Evaluate ACUAAA : FACS-Seq fitted mean (log10) at minimum 0.5?
(A) not met

(Q) Say whether UAACCG shows FACS-Seq fitted mean (log10) of 0.5 or more.
(A) met

(Q) Dear colleague, could you confirm whether AAUAAC has FACS-Seq fitted mean (log10) at or above 0.5?
(A) not met

(Q) Does the variant UCUGUU have recorded FACS-Seq fitted mean (log10) that is 0.5 or more?
(A) met

(Q) API: above_or_equal(metric=FACS-Seq fitted mean (log10), cutoff=0.5) for item AAAUUC
(A) not met

(Q) # check: FACS-Seq fitted mean (log10) of GAUUGU is greater than or equal to 0.5
(A) not met

(Q) Decide: is the reported value of FACS-Seq fitted mean (log10) for ACAGAU equal to or greater than 0.5?
(A) not met

(Q) Hi, just wondering whether CUCAAU shows FACS-Seq fitted mean (log10) of 0.5 or higher.
(A) not met

(Q) Is FACS-Seq fitted mean (log10) for AAAGAG at or above 0.5?
(A) not met

(Q) Quick check, FACS-Seq fitted mean (log10) >= 0.5? GAUGUC
(A) not met

(Q) Item UCAAAC with FACS-Seq fitted mean (log10) of 0.5 or above?
(A) met

(Q) Is it the case that AAUAUG has FACS-Seq fitted mean (log10) reaching or exceeding 0.5?
(A) not met
